# key: entry, value: EC50, CreLuc assay, 0.5% hP
Target: T1, human neuropeptide Y2 (NPY2) receptor (human, UniProt P49146 1-381)
T1 sequence (looked up): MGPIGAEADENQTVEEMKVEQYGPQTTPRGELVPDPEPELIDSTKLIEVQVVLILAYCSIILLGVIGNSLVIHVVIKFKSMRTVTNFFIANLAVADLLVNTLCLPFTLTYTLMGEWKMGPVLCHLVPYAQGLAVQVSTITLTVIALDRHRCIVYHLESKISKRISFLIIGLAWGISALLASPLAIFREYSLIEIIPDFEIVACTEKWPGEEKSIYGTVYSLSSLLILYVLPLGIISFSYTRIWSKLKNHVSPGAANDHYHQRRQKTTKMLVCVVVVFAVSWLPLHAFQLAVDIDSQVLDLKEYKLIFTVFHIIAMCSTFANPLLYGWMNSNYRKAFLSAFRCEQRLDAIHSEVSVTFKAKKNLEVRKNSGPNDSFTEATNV
Assay: cell-based or functional assay

binder	EC50, CreLuc assay, 0.5% hP / nM
YXEGTFTSDYSIXLEXKAQXEFVEWLIKGGPSSGASLRHYYNWLTRQRY (Aib at 2, 13, 16, 20; K28 side chain: C20DA-gGlu-gGlu-gGlu-gGlu-gGlu-gGlu-eLys; C-terminal NH2) [Compound 24]	26.8
YXEGTFTSDYSIXLEKQAQXAFVQWLIKGGPESGASLRHYYNWLTRQRY (Aib at 2, 13, 20; K28 side chain: C20DA-gGlu-gGlu-gGlu-gGlu-gGlu; C-terminal NH2) [Compound 29]	8.79
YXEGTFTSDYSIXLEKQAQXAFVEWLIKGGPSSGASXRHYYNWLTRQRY (Aib at 2, 13, 20, 37; DTyr 49; K28 side chain: C20DA-gGlu-gGlu-gGlu-gGlu-gGlu-gGlu-eLys; C-terminal NH2) [Compound 74]	53.4
